Cited source: patent US20240383958A1

Tested on: APJ-eGFP fusion protein
Sequence (P35414 whole entry, the tested form may be a part): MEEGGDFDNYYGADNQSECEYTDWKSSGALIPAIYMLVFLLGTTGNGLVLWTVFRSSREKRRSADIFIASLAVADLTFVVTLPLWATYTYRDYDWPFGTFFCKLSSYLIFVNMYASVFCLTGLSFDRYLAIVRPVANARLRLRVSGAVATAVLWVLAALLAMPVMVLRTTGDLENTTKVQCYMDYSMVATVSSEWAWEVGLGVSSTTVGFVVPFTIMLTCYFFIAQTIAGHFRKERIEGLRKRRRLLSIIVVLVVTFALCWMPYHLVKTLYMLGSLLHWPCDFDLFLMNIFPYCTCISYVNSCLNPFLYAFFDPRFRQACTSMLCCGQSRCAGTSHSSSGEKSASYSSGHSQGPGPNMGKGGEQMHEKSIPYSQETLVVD
Assay: Internalization assay, CHO-M1 cells expressing APJ-eGFP, high-content imaging
Type: cell-based
Parameters: key: 0: No Internalization; >1000; 2: 100-1000; 3: 10-100; 4: <10
Details: lowest concentration at which maximum internalization was observed; 0.914 nM to 2000 nM
I'd appreciate it if you could supply Internalization Score values for the items below.
Just the number, please, no unit attached.

Entry ELA-E: Fc-linker fusion of elabela analogue KLRKHNCLQRRCMPLHRRVPFP (S17R) (protein) MRAWIFFLLCLAGRALADKTHTSPPSPAPEAAGGPSVFLFPPKPKDTLMISRTPEVTCVVVDVSHEDPEVKFNWYVDGVEVHNAKTKPREEQYNSTYRVVSVLTVLHQDWLNGKEYKCKVSNKALPAPIEKTISKAKGQPREPQVYTLPPSREEMTKNQVNLTCLVKGFYPSDIAVEWESNGQPENNYKTTPPVLDSDGSFFLNSTLTVDKSRWQQGNVFSCSVMHEALHNHYTQKSLSLSPGKGGGGSGGGGSGGGGSKLRKHNCLQRRCMPLHRRVPFP ; Internalization Score = 0

Entry APL-M: Leader-Fc-linker fusion of apelin analogue QRPRLSHWGPMAW (K8W, P12A, F13W) (protein) MRAWIFFLLCLAGRALADKTHTSPPSPAPEAAGGPSVFLFPPKPKDTLMISRTPEVTCVVVDVSHEDPEVKFNWYVDGVEVHNAKTKPREEQYNSTYRVVSVLTVLHQDWLNGKEYKCKVSNKALPAPIEKTISKAKGQPREPQVYTLPPSREEMTKNQVNLTCLVKGFYPSDIAVEWESNGQPENNYKTTPPVLDSDGSFFLNSTLTVDKSRWQQGNVFSCSVMHEALHNHYTQKSLSLSPGKGGGGSGGGGSGGGGSQRPRLSHWGPMAW ; Internalization Score = 0
